Values compiled from patent US20190330224A1.

Human ACC2 (Homo sapiens, UniProt O00763) IC50 data
Sequence (O00763 whole entry): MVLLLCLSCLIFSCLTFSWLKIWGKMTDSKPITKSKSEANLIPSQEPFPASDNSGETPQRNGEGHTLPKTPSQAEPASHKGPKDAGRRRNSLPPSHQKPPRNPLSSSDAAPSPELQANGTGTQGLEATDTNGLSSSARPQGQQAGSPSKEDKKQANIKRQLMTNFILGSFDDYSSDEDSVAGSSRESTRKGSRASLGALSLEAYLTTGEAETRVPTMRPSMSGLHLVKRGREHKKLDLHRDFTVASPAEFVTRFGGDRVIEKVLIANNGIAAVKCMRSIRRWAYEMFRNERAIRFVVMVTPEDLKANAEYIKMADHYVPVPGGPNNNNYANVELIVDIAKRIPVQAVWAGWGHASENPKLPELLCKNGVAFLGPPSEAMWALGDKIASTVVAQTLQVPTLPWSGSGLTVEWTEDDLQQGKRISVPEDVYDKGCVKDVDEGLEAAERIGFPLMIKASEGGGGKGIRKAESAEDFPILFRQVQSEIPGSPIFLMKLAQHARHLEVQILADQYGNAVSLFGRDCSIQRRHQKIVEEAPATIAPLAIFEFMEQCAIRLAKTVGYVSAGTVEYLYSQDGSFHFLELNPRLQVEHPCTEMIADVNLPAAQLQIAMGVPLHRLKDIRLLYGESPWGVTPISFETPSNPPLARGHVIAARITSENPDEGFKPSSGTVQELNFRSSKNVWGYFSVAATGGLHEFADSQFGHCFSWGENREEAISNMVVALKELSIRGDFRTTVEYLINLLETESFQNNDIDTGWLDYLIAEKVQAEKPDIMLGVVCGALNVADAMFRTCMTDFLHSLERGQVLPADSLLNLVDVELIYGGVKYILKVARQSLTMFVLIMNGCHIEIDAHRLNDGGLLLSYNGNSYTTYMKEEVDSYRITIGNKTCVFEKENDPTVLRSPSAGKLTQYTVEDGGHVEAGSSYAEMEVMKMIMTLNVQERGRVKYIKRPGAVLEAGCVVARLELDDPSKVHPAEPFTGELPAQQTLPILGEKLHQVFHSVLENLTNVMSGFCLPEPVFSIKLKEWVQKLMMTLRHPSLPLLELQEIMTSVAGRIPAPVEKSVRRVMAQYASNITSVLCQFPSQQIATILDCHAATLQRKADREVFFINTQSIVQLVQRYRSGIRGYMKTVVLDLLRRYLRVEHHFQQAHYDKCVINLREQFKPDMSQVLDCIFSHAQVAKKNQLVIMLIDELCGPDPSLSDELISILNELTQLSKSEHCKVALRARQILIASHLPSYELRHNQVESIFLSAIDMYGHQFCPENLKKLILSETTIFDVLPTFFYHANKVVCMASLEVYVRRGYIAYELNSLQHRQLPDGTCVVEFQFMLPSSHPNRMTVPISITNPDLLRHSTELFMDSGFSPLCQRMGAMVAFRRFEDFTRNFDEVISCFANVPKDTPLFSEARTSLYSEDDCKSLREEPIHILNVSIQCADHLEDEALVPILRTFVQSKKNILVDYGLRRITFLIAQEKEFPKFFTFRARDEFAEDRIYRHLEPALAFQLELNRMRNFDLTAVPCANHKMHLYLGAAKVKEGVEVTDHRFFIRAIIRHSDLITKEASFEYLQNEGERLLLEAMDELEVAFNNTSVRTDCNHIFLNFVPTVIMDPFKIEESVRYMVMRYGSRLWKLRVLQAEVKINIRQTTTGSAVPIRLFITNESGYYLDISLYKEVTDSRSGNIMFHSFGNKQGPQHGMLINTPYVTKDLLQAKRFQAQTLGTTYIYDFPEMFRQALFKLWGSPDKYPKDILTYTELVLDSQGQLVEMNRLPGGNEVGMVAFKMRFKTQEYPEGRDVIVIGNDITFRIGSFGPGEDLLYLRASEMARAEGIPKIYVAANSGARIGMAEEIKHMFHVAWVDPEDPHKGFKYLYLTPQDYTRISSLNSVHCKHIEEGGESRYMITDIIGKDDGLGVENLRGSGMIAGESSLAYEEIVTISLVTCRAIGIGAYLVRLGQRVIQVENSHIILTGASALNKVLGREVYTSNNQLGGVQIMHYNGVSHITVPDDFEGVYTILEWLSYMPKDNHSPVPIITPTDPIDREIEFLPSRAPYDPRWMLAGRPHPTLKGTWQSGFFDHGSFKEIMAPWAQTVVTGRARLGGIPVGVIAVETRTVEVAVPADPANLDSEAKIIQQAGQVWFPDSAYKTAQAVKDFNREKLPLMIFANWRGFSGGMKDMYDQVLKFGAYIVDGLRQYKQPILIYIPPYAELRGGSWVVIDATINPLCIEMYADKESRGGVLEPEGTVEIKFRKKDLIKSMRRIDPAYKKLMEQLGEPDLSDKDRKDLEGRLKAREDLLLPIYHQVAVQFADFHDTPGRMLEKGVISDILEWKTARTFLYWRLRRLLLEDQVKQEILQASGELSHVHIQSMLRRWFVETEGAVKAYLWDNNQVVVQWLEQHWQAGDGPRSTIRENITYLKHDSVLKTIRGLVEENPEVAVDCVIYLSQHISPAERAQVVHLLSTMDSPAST

Examples with answers:
{"compound": "COc1ccc(F)cc1[C@H](COc1nc2sc(-n3nccn3)c(C)c2c(=O)n1[C@@H]1CNC(=O)C1)OCCO [Compound I-103]", "IC50": "> 1000 nM"}
{"compound": "COc1ccc(F)cc1[C@H](Cn1c(=O)n([C@@H]2CCNC2=O)c(=O)c2c(C)c(-n3nccn3)sc21)O[C@H]1C[C@@H](O)C1 [Compound I-184]", "IC50": "2 to 10 nM"}
{"compound": "COc1ccc(F)cc1[C@H](Cn1c(=O)n([C@@H]2CCN(C(=O)C(C)C)C2)c(=O)c2c(C)c(-n3nccn3)sc21)OCCO [Compound I-87]", "IC50": "10 to 100 nM"}

# COc1ccc(F)cc1[C@H](Cn1c(=O)n([C@@H]2CCCNC2=O)c(=O)c2c(C)c(-n3nccn3)sc21)OCCO [Compound I-71] with Human ACC2 (Homo sapiens, UniProt O00763): IC50 is 2 to 10 nM

# COc1ccc(F)cc1[C@H](Cn1c(=O)n([C@H]2CCN(C)C2=O)c(=O)c2c(C)c(-n3cccn3)sc21)OCCC(=O)O [Compound I-180] with Human ACC2 (Homo sapiens, UniProt O00763): IC50 is 100 to 1000 nM

# COc1ccc(F)cc1[C@H](Cn1c(=O)n(C2CCCN(C)C2=O)c(=O)c2c(C)c(-n3nccn3)sc21)OCCO (stereo partly drawn) [Compound I-18] with Human ACC2 (Homo sapiens, UniProt O00763): IC50 is 10 to 100 nM
